Test system: Yellow Fever Mosquito (YFM) (Aedes aegypti)
testMethodNotes: Bioassay on Yellow Fever Mosquito (YFM) larvae, 96-well plate
Format: in vivo
details: Table ABC; about 1 day-old larvae, master plate 4000 ppm in DMSO diluted, scored on mortality after 3 days
endpointLabel: YFM % Control (or Mortality) rating

// below: answered compounds
COc1ccc(NC(=S)NC(=O)NC2Cc3ccc(-c4ncn(-c5ccc(OC(F)(F)F)cc5)n4)cc3C2)c(C)c1 (stereo not shown) [P1]    A (80-100)
Cc1ccc(C(C)C)c(-n2c(C)cs/c2=N\C(=O)NC2Cc3ccc(-c4ncn(-c5ccc(OC(F)(F)F)cc5)n4)cc3C2)c1 (stereo not shown) [P12]    A (80-100)
O=C(NC(=S)Nc1ccccc1C1CC1)NC1Cc2ccc(-c3ncn(-c4ccc(OC(F)(F)F)cc4)n3)cc2C1 (stereo not shown) [F11]    A (80-100)
CC(C)c1ccc(Cl)cc1N1C(=O)CS/C1=N\C(=O)NC1Cc2ccc(-c3ncn(-c4ccc(OC(F)(F)F)cc4)n3)cc2C1 (stereo not shown) [P8]    A (80-100)

Give recorded YFM % Control (or Mortality) rating. CCc1ccccc1N1C(=O)CS/C1=N\C(=O)NC1Cc2ccc(-c3ncn(-c4ccc(OC(F)(F)F)cc4)n3)cc2C1 (stereo not shown) [F12] A (80-100)

Give recorded YFM % Control (or Mortality) rating. CC(C)c1ccc(Cl)cc1N1C(=O)CS/C1=N\C(=O)NC1CCc2cc(-c3ncn(-c4ccc(OC(F)(F)F)cc4)n3)ccc2C1 (stereo not shown) [P33] A (80-100)

Give recorded YFM % Control (or Mortality) rating. Cc1ccc(C)c(NC(=S)NC(=O)NC2CCc3cc(-c4ncn(-c5ccc(OC(F)(F)F)cc5)n4)ccc3C2)c1 (stereo not shown) [P25] A (80-100)
